- Target Under Test: IKZF2 (Homo sapiens (Human), UniProt Q96SW2+Q9UKS7)
- Sequence (Q9UKS7 whole entry): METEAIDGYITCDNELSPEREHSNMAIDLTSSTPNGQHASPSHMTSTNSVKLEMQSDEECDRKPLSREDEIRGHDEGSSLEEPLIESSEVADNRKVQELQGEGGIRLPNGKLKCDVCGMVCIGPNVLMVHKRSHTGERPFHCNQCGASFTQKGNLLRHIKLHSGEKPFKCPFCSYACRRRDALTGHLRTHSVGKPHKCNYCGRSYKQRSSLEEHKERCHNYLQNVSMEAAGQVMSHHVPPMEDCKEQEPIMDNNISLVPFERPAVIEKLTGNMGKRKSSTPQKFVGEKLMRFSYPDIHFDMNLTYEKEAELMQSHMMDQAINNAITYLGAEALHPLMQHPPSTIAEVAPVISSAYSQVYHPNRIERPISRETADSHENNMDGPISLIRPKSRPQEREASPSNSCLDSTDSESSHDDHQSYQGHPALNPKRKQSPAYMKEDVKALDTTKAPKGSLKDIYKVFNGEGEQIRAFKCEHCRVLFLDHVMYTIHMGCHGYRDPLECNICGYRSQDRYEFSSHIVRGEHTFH
- Sequence (Q96SW2 whole entry): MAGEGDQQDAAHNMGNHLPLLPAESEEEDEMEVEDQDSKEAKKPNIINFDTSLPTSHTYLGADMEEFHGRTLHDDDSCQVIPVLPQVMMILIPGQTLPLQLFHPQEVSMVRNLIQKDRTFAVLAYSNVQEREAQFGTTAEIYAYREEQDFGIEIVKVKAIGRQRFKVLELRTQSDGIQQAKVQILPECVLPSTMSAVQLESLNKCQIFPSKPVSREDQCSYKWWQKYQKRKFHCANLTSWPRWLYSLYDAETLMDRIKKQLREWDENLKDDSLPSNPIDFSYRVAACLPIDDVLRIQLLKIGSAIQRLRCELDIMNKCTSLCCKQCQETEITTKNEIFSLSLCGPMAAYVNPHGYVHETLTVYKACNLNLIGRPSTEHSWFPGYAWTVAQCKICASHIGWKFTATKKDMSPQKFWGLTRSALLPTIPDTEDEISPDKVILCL
- Sequence (Q16531 2-1140 partner): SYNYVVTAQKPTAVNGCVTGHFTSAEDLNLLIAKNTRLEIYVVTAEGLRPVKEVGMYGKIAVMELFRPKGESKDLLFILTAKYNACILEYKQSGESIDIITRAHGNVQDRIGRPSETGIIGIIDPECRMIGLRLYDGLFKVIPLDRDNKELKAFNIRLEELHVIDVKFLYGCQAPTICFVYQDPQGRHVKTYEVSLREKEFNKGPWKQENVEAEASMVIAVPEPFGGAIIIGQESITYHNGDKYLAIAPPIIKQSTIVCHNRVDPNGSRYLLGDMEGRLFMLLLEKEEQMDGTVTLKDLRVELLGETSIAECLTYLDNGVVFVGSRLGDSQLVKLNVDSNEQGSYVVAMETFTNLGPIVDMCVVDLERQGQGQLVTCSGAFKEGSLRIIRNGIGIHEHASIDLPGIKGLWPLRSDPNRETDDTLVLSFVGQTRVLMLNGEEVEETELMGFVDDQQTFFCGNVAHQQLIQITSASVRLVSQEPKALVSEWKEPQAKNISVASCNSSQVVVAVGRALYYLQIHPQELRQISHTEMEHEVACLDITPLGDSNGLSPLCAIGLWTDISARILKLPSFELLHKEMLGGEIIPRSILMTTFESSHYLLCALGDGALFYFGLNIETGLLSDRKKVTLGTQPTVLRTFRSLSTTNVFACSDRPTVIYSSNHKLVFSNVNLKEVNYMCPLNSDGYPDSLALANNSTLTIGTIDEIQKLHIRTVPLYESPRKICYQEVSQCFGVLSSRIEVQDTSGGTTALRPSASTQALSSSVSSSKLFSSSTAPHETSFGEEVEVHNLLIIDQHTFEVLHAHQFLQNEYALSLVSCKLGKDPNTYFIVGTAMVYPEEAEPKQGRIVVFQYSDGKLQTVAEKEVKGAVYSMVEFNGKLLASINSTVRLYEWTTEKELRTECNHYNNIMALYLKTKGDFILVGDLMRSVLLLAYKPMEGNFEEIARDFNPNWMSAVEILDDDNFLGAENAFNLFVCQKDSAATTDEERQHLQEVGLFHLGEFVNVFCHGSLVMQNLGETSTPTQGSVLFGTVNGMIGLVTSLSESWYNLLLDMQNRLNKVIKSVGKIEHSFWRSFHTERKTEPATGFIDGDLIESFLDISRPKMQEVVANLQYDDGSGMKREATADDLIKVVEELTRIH
- Experimental Protocol: In vitro IKZF2 FACS Assay in Jurkat cells
- Assay type: cell-based
- Reported Conditions: 24 hrs, half maximal degradation concentration
Observed Property: DC50

1. Cn1ccc2cccc(CNCc3cc(-c4ccc5c(c4)CN(C4CCC(=O)NC4=O)C5=O)n4cncc4c3)c21 (stereo not shown) ... > 1000 nM
2. O=C1CCC(N2Cc3cc(-c4cc(CN5CCCC5)c5ccn(C6CCC6)c5n4)ccc3C2=O)C(=O)N1 (stereo not shown) ... 1 to 10 nM
3. O=C1CCC(N2Cc3cc(-c4cc(CN5CCCC5)c5ncn(C6CCC6)c5n4)ccc3C2=O)C(=O)N1 (stereo not shown) ... 10 to 100 nM
4. Cn1cc(-n2ccc3c(CN4CCCC4)cc(-c4ccc5c(c4)CN(C4CCC(=O)NC4=O)C5=O)nc32)cn1 (stereo not shown) ... < 1 nM

---

- Target Under Test: IKZF1 (Homo sapiens (Human), UniProt Q13422+Q96SW2)
- Sequence (Q13422 whole entry): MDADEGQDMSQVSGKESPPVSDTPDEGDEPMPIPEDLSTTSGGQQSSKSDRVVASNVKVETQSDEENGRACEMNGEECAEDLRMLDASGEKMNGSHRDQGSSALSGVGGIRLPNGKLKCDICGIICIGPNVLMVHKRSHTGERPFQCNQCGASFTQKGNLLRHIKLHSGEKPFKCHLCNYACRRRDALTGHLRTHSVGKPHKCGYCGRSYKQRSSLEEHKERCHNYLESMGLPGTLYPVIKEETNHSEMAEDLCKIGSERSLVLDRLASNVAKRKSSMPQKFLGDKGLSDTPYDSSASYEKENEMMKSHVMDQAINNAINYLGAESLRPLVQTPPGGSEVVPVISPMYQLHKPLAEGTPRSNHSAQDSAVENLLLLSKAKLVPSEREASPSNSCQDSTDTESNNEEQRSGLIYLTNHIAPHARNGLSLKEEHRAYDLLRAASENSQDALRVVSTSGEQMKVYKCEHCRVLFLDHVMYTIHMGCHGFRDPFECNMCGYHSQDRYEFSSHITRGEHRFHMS
- Sequence (Q96SW2 whole entry): as the sequence (Q96SW2 whole entry) above
- Sequence (Q16531 2-1140 partner): as the sequence (Q16531 2-1140 partner) above
- Experimental Protocol: In vitro IKZF1 HiBit Assay (HEK293T Flp-in-HiBiT-IKZF1 stable cell line)
- Type: cell-based
- Reported Conditions: HEK293T Flp-in-HiBiT-IKZF1 stable cell line, 6 hrs incubation; read-out: IKZF1 HiBit DC50
Observed Property: DC50

1) Cn1ccc2c(CN3CCn4nccc4C3)cc(-c3ccc4c(c3)CN(C3CCC(=O)NC3=O)C4=O)nc21 (stereo not shown) ... > 10 µM
2) Cn1ccc2nc(-c3ccc4c(c3)CN(C3CCC(=O)NC3=O)C4=O)cc(CN3CCCC3)c21 (stereo not shown) ... > 10 µM
3) CCNc1n[nH]c2c(CN3CCCC3)cc(-c3ccc4c(c3F)CN(C3CCC(=O)NC3=O)C4=O)nc12 (stereo not shown) ... 0.01 to 0.1 µM
4) CN1CC(n2ccc3c(CN4CCCC4)cc(-c4ccc5c(c4)CN(C4CCC(=O)NC4=O)C5=O)nc32)C1 (stereo not shown) ... 0.01 to 0.1 µM
5) Cn1ccc2c(CN3CCS(=O)(=O)CC3)cc(-c3ccc4c(c3)CN(C3CCC(=O)NC3=O)C4=O)nc21 (stereo not shown) ... > 10 µM
6) O=C1CCC(N2Cc3cc(-c4cc(CN5CC6COCC(C6)C5)c5ccn(C6COC6)c5n4)ccc3C2=O)C(=O)N1 (stereo not shown) ... > 10 µM
7) O=C1CCC(N2Cc3cc(-c4ncc5cc(CN6CCCC6)ccn45)ccc3C2=O)C(=O)N1 (stereo not shown) ... > 10 µM

---

- Target Under Test: IKZF2 (Homo sapiens (Human), UniProt Q96SW2+Q9UKS7)
- Experimental Protocol: In vitro IKZF2 FACS Assay in Jurkat cells
- Type: cell-based
- Reported Conditions: 24 hrs, maximal degradation percentage
Here the recorded Dmax is given for each entry.
Observed Property: Dmax

1) O=C1CCC(N2Cc3cc(-c4cc(CN5CC(F)C5)c5cc[nH]c5n4)ccc3C2=O)C(=O)N1 (stereo not drawn) [Example 117] ... > 80%
2) Nc1n[nH]c2c(CN3CC4COCC(C4)C3)cc(-c3ccc4c(c3)CN(C3CCC(=O)NC3=O)C4=O)nc12 (stereo not drawn) [Example 215] ... > 80%
3) CC(C)Nc1ccnc2c(CN3CCCC3)cc(-c3ccc4c(c3)CN(C3CCC(=O)NC3=O)C4=O)nc12 (stereo not drawn) [Example 236] ... < 20%
4) O=C1CCC(N2Cc3cc(-c4nc(CN5CCCC5)c5cc[nH]c5n4)ccc3C2=O)C(=O)N1 (stereo not drawn) [Example 182] ... 60 to 80%
5) CC(C)Nc1n[nH]c2c(CN3CCCC3)cc(-c3ccc4c(c3F)CN(C3CCC(=O)NC3=O)C4=O)nc12 (stereo not drawn) [Example 226] ... > 80%
6) CCNc1n[nH]c2c(CN3CCCC3)cc(-c3ccc4c(c3)CN(C3CCC(=O)NC3=O)C4=O)nc12 (stereo not drawn) [Example 199] ... 60 to 80%
7) O=C1CCC(N2Cc3cc(-c4cc(CN5CCCC5)c5cnn(C6COC6)c5n4)ccc3C2=O)C(=O)N1 (stereo not drawn) [Example 203] ... > 80%
8) O=C1CCC(N2Cc3cc(-c4cc(CN5CCCC5)c5ncn(C6COC6)c5n4)ccc3C2=O)C(=O)N1 (stereo not drawn) [Example 211] ... 60 to 80%
9) O=C1CCC(N2Cc3cc(-c4cc(CN5CCCC5)c5ccn(C6COC6)c5n4)ccc3C2=O)C(=O)N1 (stereo not drawn) [Example 129] ... > 80%
10) CC1(C)CCCN1Cc1cc(-c2ccc3c(c2)CN(C2CCC(=O)NC2=O)C3=O)nc2c1ccn2C1COC1 (stereo not drawn) [Example 254] ... 60 to 80%
11) CC1c2cc(-c3cc(CN4CCCC4)c4ccn(C5COC5)c4n3)ccc2C(=O)N1C1CCC(=O)NC1=O (stereo not drawn) [Example 276] ... > 80%
12) CN(C)c1ccnc2c(CN3CCCC3)cc(-c3ccc4c(c3)CN(C3CCC(=O)NC3=O)C4=O)nc12 (stereo not drawn) [Example 237] ... 40 to 60%
13) CN(Cc1cc(-c2ccc3c(c2)CN(C2CCC(=O)NC2=O)C3=O)n2cncc2c1)C(C)(C)c1ccccc1 (stereo not drawn) [Example 19] ... 20 to 40%
14) Cc1cc2c(CN3CCCC3)cc(-c3ccc4c(c3)CN(C3CCC(=O)NC3=O)C4=O)nc2n1C1COC1 (stereo not drawn) [Example 275] ... 60 to 80%
15) O=C1CCC(N2Cc3cc(-c4ncc5ccc(CN6CCCC6)cn45)ccc3C2=O)C(=O)N1 (stereo not drawn) [Example 53] ... 20 to 40%

---

- Target Under Test: IKZF2 (Homo sapiens (Human), UniProt Q96SW2+Q9UKS7)
- Experimental Protocol: In vitro IKZF2 FACS Assay in Jurkat cells
- Type: cell-based
- Reported Conditions: 24 hrs, maximal degradation percentage
Here the recorded Dmax is given for each entry.
Observed Property: Dmax

1) O=C1CCC(N2Cc3cc(-c4cc(CN5CC6COCC(C6)C5)cc5cncn45)ccc3C2=O)C(=O)N1 (stereo not shown) [Example 11] ... 40 to 60%
2) Cn1ccc(-n2ccc3c(CN4CCCC4)cc(-c4ccc5c(c4)CN([C@H]4CCC(=O)NC4=O)C5=O)nc32)n1 [Example 265] ... 60 to 80%
3) O=C1CCC(N2Cc3cc(-c4cc(CN5CCC6(CC5)COC6)cc5cncn45)ccc3C2=O)C(=O)N1 (stereo not shown) [Example 10] ... 40 to 60%
4) O=C1CCC(N2Cc3cc(-c4cc(CN5CCCC5)c5cnn(C6CCC6)c5n4)ccc3C2=O)C(=O)N1 (stereo not shown) [Example 206] ... > 80%
5) O=C1CCC(N2Cc3cc(-c4cc(CN5CCCCC5)cc5cncn45)ccc3C2=O)C(=O)N1 (stereo not shown) [Example 3] ... 40 to 60%
6) O=C1CCC(N2Cc3cc(-c4cc(CN5CCOCC5)cc5cncn45)ccc3C2=O)C(=O)N1 (stereo not shown) [Example 4] ... 20 to 40%
7) COC[C@@H]1CCCN1Cc1cc(-c2ccc3c(c2)CN(C2CCC(=O)NC2=O)C3=O)nc2c1ccn2C1COC1 (stereo partly shown) [Example 250] ... 60 to 80%

---

- Target Under Test: IKZF2 (Homo sapiens (Human), UniProt Q96SW2+Q9UKS7)
- Experimental Protocol: In vitro IKZF2 HiBit Assay (HEK293T Flp-in-HiBiT cells)
- Type: cell-based
- Reported Conditions: HEK-293T; HEK293T Flp-in-HiBiT cells, 6 hrs incubation; read-out: IKZF2 HiBit Dmax (%)
Here the recorded Dmax is given for each entry.
Observed Property: Dmax

1) Cn1ccc2c(CN3CCC3c3ccccc3)cc(-c3ccc4c(c3)CN(C3CCC(=O)NC3=O)C4=O)nc21 (stereo not drawn) [Example 71] ... > 80%
2) O=C1CCC(N2Cc3cc(-c4nc(CN5CCCC5)c5ccn(C6COC6)c5n4)ccc3C2=O)C(=O)N1 (stereo not drawn) [Example 218] ... 60 to 80%
3) Cn1ccc2c(CN3CCCC3(C)C)cc(-c3ccc4c(c3)CN(C3CCC(=O)NC3=O)C4=O)nc21 (stereo not drawn) [Example 113] ... 60 to 80%
4) Cn1cc2c(CN3CCCC3)cc(-c3ccc4c(c3)CN(C3CCC(=O)NC3=O)C4=O)nc2n1 (stereo not drawn) [Example 315] ... > 80%
5) O=C1CCC(N2Cc3cc(-c4cc(CN5CCC6(CC5)COC6)cc5cncn45)ccc3C2=O)C(=O)N1 (stereo not drawn) [Example 10] ... 40 to 60%
6) CNc1[nH]nc2c(CN3CCCC3)cc(-c3ccc4c(c3F)CN(C3CCC(=O)NC3=O)C4=O)nc12 (stereo not drawn) [Example 296] ... > 80%
7) O=C1CCC(N2Cc3cc(-c4cc(CN5CCCC5)c5ccn(C6CS(=O)(=O)C6)c5n4)ccc3C2=O)C(=O)N1 (stereo not drawn) [Example 176] ... > 80%
8) CCNc1n[nH]c2c(CN3CCCC3)cc(-c3ccc4c(c3)CN(C3CCC(=O)NC3=O)C4=O)nc12 (stereo not drawn) [Example 199] ... > 80%
9) O=C1CCC(N2Cc3cc(-c4cc(CN5CCCC5)c5ccn(C6CCOC6)c5n4)ccc3C2=O)C(=O)N1 (stereo not drawn) [Example 170] ... 60 to 80%
10) O=C1CCC(N2Cc3cc(-c4cc(CN5CCC(CO)CC5)c5ccn(C6COC6)c5n4)ccc3C2=O)C(=O)N1 (stereo not drawn) [Example 163] ... 60 to 80%
11) Cn1ncc2c(CN3CCCC3)cc(-c3ccc4c(c3)CN(C3CCC(=O)NC3=O)C4=O)nc21 (stereo not drawn) [Example 313] ... > 80%
12) O=C1CCC(N2Cc3cc(-c4cc(CN5CC(F)C5)c5ccn(C6COC6)c5n4)ccc3C2=O)C(=O)N1 (stereo not drawn) [Example 161] ... 60 to 80%
13) Cn1ccc2c(CN3CCCCCC3)cc(-c3ccc4c(c3)CN(C3CCC(=O)NC3=O)C4=O)nc21 (stereo not drawn) [Example 302] ... > 80%
14) O=C1CCC(N2Cc3cc(-c4cc(CN5CCCC5)c5cccc(C6CCC6)c5n4)ccc3C2=O)C(=O)N1 (stereo not drawn) [Example 241] ... 40 to 60%
15) Cn1ccc2c(CN3CCC(S(C)(=O)=O)CC3)cc(-c3ccc4c(c3)CN(C3CCC(=O)NC3=O)C4=O)nc21 (stereo not drawn) [Example 300] ... 60 to 80%
